System: NCI-H460
METHOD SUMMARY: NCI tumour cell line growth inhibition, 48 h
Calls of active or inactive are those of the source. Cut-off read from the data, not from the text of the source: active = GI50 up to about 1.1 µM and inactive = higher.
GI50 values for the compounds below.

Example results:
{"COMPOUND": "CCOC(=O)c1ncn2c1[nH]c(=S)c1ccccc12", "TESTED SYSTEM": "NCI-H460", "GI50": "> 100 µM (inactive)"}
{"COMPOUND": "Cc1sc2nc(-c3ccc([N+](=O)[O-])cc3)c(/C=N/N=C(N)N)n2c1C", "TESTED SYSTEM": "NCI-H460", "GI50": "1.75 µM (inactive)"}

Item: COC(=O)C(Cc1nc2ccccc2nc1O)C(NO)C(=O)Nc1c(Cl)cc([N+](=O)[O-])cc1Cl (stereo not given) | GI50: 20.7 µM (inactive)

GI50 reported for this compound `C/C(=N\Nc1ccc([N+](=O)[O-])cc1)C(=O)N(C)Nc1ccccc1` : 47.1 µM (inactive)

// field: GI50; key: `COc1cc2c(oc(=O)c3cc4ccoc4c(OC)c32)c2cccc(O)c12` ; value = > 100 µM (inactive)

* * *

System: RXF 393
METHOD SUMMARY: NCI tumour cell line growth inhibition, 48 h
Activity calls are given as the source filed them. Rule as the data show it: active = GI50 up to about 1.1 µM and inactive = higher.
Reported GI50 values are given for each entry in this list.

Sample records with GI50:
{"COMPOUND": "C[C@@H](NC(=O)Nc1cccc(C(=O)Nc2cc(C(C)(C)C)ccc2C(=O)O)n1)c1ccccc1", "MEASUREMENT KIND": "GI50", "MEASURED RESULT": "21.5 µM (inactive)"}
{"COMPOUND": "Oc1ccc(Cl)cc1Cc1cc(Cl)cc(Cc2cc(Cl)ccc2O)c1O", "MEASUREMENT KIND": "GI50", "MEASURED RESULT": "1.84 µM (inactive)"}
{"COMPOUND": "C=C(Cl)c1c(OC)cccc1OCc1ccccc1", "MEASUREMENT KIND": "GI50", "MEASURED RESULT": "16.7 µM (inactive)"}

Record `NC(=S)N/N=C1\CCCC\C1=C/c1ccccc1` , field GI50: 23.8 µM (inactive)

Consider Cc1nn(C(=O)c2ccc(Cl)cc2)c2c1C(/C=C/c1ccccc1)SC(=N)N2 (stereo not drawn) . Its measured GI50 is > 10 µM (inactive)

What the record says about `CCCCOCCOCCOC1=CC(=O)c2c(O)ccc(O)c2C1=O` : GI50 is 1.94 µM (inactive)

GET /value?item= O=C1/C(=C\c2cccc(Oc3ccccc3)c2)SC(c2ccccc2)N1c1ccc(Cl)cc1 (stereo not drawn) &field=GI50 returns 19.5 µM (inactive)

The compound identified as `O=C(CO[N+](=O)[O-])OC/C=C/c1ccccc1` registered its GI50 at > 100 µM (inactive)

Note to self: GI50 recorded for `CCOC(=O)c1[nH]cc(C)c1-c1ccn(-c2ccccc2)c1` was 36.8 µM (inactive)

The reported value for `CCCO/N=[N+](\[O-])N(CC)CC` in terms of GI50 is > 100 µM (inactive)

The compound `Cc1nnc(N/N=C2/C(=O)Nc3c(Cl)cc(Cl)cc32)n1N` showed GI50 equal to 59.2 µM (inactive)

The reported GI50 of the compound `c1ccc(-n2nc3ccc4nonc4c3n2)cc1` was > 100 µM (inactive)

* * *

System: 786-0
METHOD SUMMARY: NCI tumour cell line growth inhibition, 48 h
Active and inactive are the calls of the source. Rule as the data show it: active = GI50 up to about 1.1 µM and inactive = higher.
Use one of these outcomes when replying: True (active), False (inactive)

{"COMPOUND": "CCCCOCCOCCOC1=CC(=O)c2c(O)ccc(O)c2C1=O", "LABEL": "False"}

IN: Status in this test for N[C@@H](CCC(=O)NC(Cc1ccccc1)C(=O)NCP(=O)(O)O)C(=O)O (some centres not stated) ?
OUT: False

IN: Can you look up the reported call for `COC(=O)c1ccccc1NC(=O)C(=O)Cc1nc2c3c(ccc2nc1O)C(=O)c1ccccc1C3=O` for me?
OUT: False

IN: Please share the test call associated with CCC(C)C(=O)OC1C(=O)OC2CC3C(C)=CC(=O)C(O)C3(C)C3C4(O)OCC23C1C(C)C4O (configuration not stated) .
OUT: True

IN: Could you please tell me the result logged for CCC1CCc2c(c(=O)oc3c2cc(OC)c2cccc(OC)c23)C1 (configuration not stated) in this assay?
OUT: False

IN: Hello, I am checking results. What call was entered for `O=C(c1ccco1)N(C(=O)N1CCC(c2ccccc2)CC1)c1ccccc1` ?
OUT: False

IN: Given `CN1CSC(=S)N(c2cccc(C(F)(F)F)c2)C1` , state the outcome it received in this test.
OUT: False

IN: What outcome does the record of this test show for `CNC(=S)N/N=C(C)\C(=N/NC(=S)NC)c1ccccc1` ?
OUT: False

* * *

Overview of reported GI50 across a group of compounds:
System: OVCAR-8
METHOD SUMMARY: NCI tumour cell line growth inhibition, 48 h
Calls of active or inactive are those of the source. No stated cut-off is given here; in the data, active = GI50 up to about 1.1 µM and inactive = higher.

# annotated cases, reported GI50 shown
{"COMPOUND": "CCOC(=O)C12OC(OCC)(CC1(OCC)OCC)C1(CC1)C2=O (centres undefined)", "GI50": "> 100 µM (inactive)"}
{"COMPOUND": "C[N+](C)(CCCCCC[N+](C)(C)CCCN1C(=O)c2cccc3cccc(c23)C1=O)CCCN1C(=O)c2cccc3cccc(c23)C1=O", "GI50": "> 100 µM (inactive)"}
{"COMPOUND": "COc1ccc(C2C(Cl)C(=O)N2NC(=O)c2ccccc2O)cc1OC (centres undefined)", "GI50": "93.1 µM (inactive)"}

Alright, here's another compound for you.
GI50 for CC12CCC[C@@](C)(C(=O)OC3OC(CO)C(O)C(O)C3O)[C@H]1CCC13CC4CC(OC4(CO)[C@H]1O)[C@@H]23 (some centres undefined) is > 100 µM (inactive)

* * *

Test system: EKVX
METHOD SUMMARY: NCI tumour cell line growth inhibition, 48 h
The source made the active and inactive calls. Rule as the data show it: active = GI50 up to about 1.1 µM and inactive = higher.
Hi there, use one of these labels in your reply, thanks! active, inactive

Worked cases, answers included:
{"COMPOUND": "Cc1sc2nc(-c3ccc([N+](=O)[O-])cc3)c(/C=N/N=C(N)N)n2c1C", "TESTED SYSTEM": "EKVX", "LABEL": "inactive"}
{"COMPOUND": "CN1CCN(c2nc3ccccc3nc2C(=O)c2ccc(Cl)cc2)CC1", "TESTED SYSTEM": "EKVX", "LABEL": "inactive"}
{"COMPOUND": "CCN1C(NN)=NS(=O)(=O)c2ccccc21", "TESTED SYSTEM": "EKVX", "LABEL": "inactive"}
{"COMPOUND": "CCOC(=O)c1oc2ccc([N+](=O)[O-])c3c2c1CCC3", "TESTED SYSTEM": "EKVX", "LABEL": "inactive"}
{"COMPOUND": "O=C1C=C(NCCc2cc(Br)c(O)c(Br)c2)C(=O)c2[nH]cnc21", "TESTED SYSTEM": "EKVX", "LABEL": "inactive"}

IN: Record lookup: outcome of this test for `CN(C)CCCSc1nc2c(c(=N)n1-c1ccccc1)c(=S)n(-c1ccccc1)c(=S)n2-c1ccccc1` ?
OUT: inactive

* * *

System: PC-3
METHOD SUMMARY: NCI tumour cell line growth inhibition, 48 h
Calls of active or inactive are those of the source. Rule as the data show it: active = GI50 up to about 1.1 µM and inactive = higher. Where a SMILES comes first, the peptide text is derived from it. The star is where a group is joined. Boc = CC(C)(C)OC(=O)*
Outcome field: choose from active, inactive

{"MOLECULE": "COC(=O)C[C@H](CCSC)NC(=O)C[C@H](CCSC)NC(=O)C[C@H](CCSC)NC(=O)OC(C)(C)C", "LABEL": "inactive"}
{"MOLECULE": "CC(C)C/N=C(\\N)N=C(N)N", "LABEL": "inactive"}
{"MOLECULE": "CC1(C)N=C(N)N=C(N)N1c1ccc(CCCCc2ccc(Cl)cc2Cl)cc1", "LABEL": "active"}
{"MOLECULE": "CC1=NN(c2nc(N)nc(/C(C#N)=C/c3ccncc3)n2)C(C)(C)C1", "LABEL": "inactive"}
{"MOLECULE": "COc1ccc(-c2cc(-c3ccncc3)nc(N)c2-c2ccc(F)cc2)cc1", "LABEL": "inactive"}

IN: Status in this test for CCOC(=O)C(CC(C)C)NC(=O)C(Cc1ccccc1)NC(=O)CNC(=O)OC(C)(C)C (stereo not drawn) (Boc-Gly-Phe-Leu-OEt; configuration not given here) ?
OUT: inactive

IN: Hi, do you know how `Nc1ccc(S(=O)(=O)Nc2cnc3c(Cl)cccc3n2)cc1` came out in this test?
OUT: inactive

* * *

Test system: SNB-19
METHOD SUMMARY: NCI tumour cell line growth inhibition, 48 h
The source made the active and inactive calls. Cut-off read from the data, not from the text of the source: active = GI50 up to about 1.1 µM and inactive = higher.
Choose the fitting class; nothing outside active, inactive is accepted.

{"COMPOUND": "COC(=O)N1CC[C@@H]2CCC=C(c3cccc4c3OCO4)[C@@H]21", "LABEL": "inactive"}

IN: Entry `Cc1[nH]c2c(c1C)S(=O)(=O)c1cc3ccccc3nc1N2` : call = ?
OUT: inactive

IN: // outcome(item) with item = CCCC1C(=O)Nc2cccc3ncn(c23)C1=O (stereo unspecified)
OUT: inactive

IN: Outcome? `COc1ccc2ccccc2c1C1=NC(C)(C)CO1`
OUT: inactive

IN: // outcome(item) with item = `CCOC(=O)c1ccc(N2C(=O)Cc3ccccc3C2=O)cc1`
OUT: inactive
